System: PDE5 partially purified from human platelets (Homo sapiens, UniProt O76074)
Construct: PDE5 partially purified from human platelets was used; from tissue; host or cells: human platelets
Assay Summary: Phosphodiesterase Type 5 (PDE5) Inhibition
Assay type: biochemical
Condition Label: 50 mcM compound; 1 μM cGMP
Metric: inhibition at 50 µM (%)

Sample records with inhibition at 50 µM:
Smiles | inhibition at 50 µM, %
O=c1c2ccccc2nc(CN2CCN(c3ncccn3)CC2)n1Cc1ccccc1 | 73
O=c1[nH]c(CN2CCN(c3ncccn3)CC2)nc2nc[nH]c12 | 32
O=c1[nH]c(CN2CCN(c3nccs3)CC2)nc2ccccc12 | 68
O=c1[nH]c(CN2CCN(c3ncccc3OCc3ccccc3)CC2)nc2ccccc12 | 40
O=c1[nH]c(CN2CCN(c3ncccn3)CC2)nc2ccccc12 | 61

[A] O=c1[nH]c(CN2CCN(c3ccccn3)CC2)nc2nc[nH]c12
[B] Cc1cccc2nc(CN3CCN(c4cccc(O)c4)CC3)[nH]c(=O)c12
Of the pair A and B , name the member with the lesser recorded inhibition at 50 µM. Lab log: write the label of the selected item as the result.
A
(A: 24%, B: 47%)

[I] O=c1[nH]c(CN2CCN(c3ccccn3)CC2)nc2ccccc12
[II] CCCOc1cccnc1N1CCN(Cc2nc3ccccc3c(=O)[nH]2)CC1
Sort I and II by inhibition at 50 µM descending and give the first. Lab log: write the label of the selected item as the result.
II
(II: 70%, I: 29%)

###

System: Human recombinant dopamine D4.4 receptors expressed in CHO-K1 cells (Homo sapiens)
Construct: expressed in transfected cells; host or cells: CHO-K1 cells (membranes)
Sequence (P21917 whole entry): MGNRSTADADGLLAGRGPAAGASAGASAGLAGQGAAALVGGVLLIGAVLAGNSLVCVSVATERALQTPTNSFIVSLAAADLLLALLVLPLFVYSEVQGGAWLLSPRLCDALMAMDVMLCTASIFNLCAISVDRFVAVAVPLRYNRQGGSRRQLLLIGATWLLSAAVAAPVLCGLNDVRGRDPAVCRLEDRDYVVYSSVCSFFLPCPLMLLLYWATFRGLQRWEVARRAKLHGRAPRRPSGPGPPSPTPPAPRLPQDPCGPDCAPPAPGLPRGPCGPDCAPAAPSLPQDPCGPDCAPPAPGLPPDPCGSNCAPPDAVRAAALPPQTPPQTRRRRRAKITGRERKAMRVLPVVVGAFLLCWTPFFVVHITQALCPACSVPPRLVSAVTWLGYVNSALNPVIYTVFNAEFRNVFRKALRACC
Assay Summary: GTPgammaS Cellular Assay (agonist response)
Type: biochemical
Condition Label: relative to the 1 μM dopamine response; tested at 5, 1, 0.1, 0.01 μM (concentration of tabulated value not given); na = no activity; read-out: D4.4(h) GTPgammaS^35 Cellular Assay, Agonist Response, %
Metric: Emax (%)

Smiles | Measured
O=c1[nH]c(CN2CCN(c3ccccc3F)CC2)nc2ccccc12 | 62
O=c1[nH]c(CN2CC=C(c3ccccc3)CC2)nc2ccccc12 | 57
N#Cc1ccccc1N1CCN(Cc2nc3ccccc3c(=O)[nH]2)CC1 | 69
O=c1cc(CN2CC=C(c3ccccc3)CC2)nc2ccccn12 | 69

###

System: PDE5 partially purified from human platelets (Homo sapiens, UniProt O76074)
Construct: PDE5 partially purified from human platelets was used; from tissue; host or cells: human platelets
Assay Summary: Phosphodiesterase Type 5 (PDE5) Inhibition
Assay type: biochemical
Condition Label: 50 mcM compound; 1 μM cGMP
Procedure: Phosphodiesterase type 5 (PDE5) catalyzes the conversion of cAMP or cGMP to their respective monophosphate forms. […] The reaction was terminated by boiling the reaction mixture for 2 minutes. […] Unhydrolyzed cGMP was bound to AG1-X2 resin, and remaining [^3H]Guanosine in the aqueous phase was quantitated by scintillation counting.
Metric: inhibition at 50 µM (%)

Smiles | inhibition at 50 µM / %
CCOc1cccnc1N1CCN(Cc2nc3cc(Cl)ccc3c(=O)[nH]2)CC1 | 26
COc1cc2nc(CN3CCN(c4cccc(O)c4)CC3)[nH]c(=O)c2cc1OC | 25
CCCn1cnc2nc(CN3CCN(c4cccc(O)c4)CC3)[nH]c(=O)c21 | 31
O=c1[nH]c(CN2CC=C(c3ccccn3)CC2)nc2cc(Cl)ccc12 | 63

[a] O=c1[nH]c(CN2CCN(c3ncccn3)CC2)nc2cc(Cl)ccc12
[b] O=c1[nH]c(CN2CCN(c3cccc(O)c3)CC2)nc2cc(Cl)ccc12
Of the pair a and b , name the member with the lesser recorded inhibition at 50 µM. Lab log: write the label of the selected item as the result.
b
